- SYSTEM_NAME: Factor IXa (Homo sapiens)
- Sequence (P00740 227-461 limits assumed): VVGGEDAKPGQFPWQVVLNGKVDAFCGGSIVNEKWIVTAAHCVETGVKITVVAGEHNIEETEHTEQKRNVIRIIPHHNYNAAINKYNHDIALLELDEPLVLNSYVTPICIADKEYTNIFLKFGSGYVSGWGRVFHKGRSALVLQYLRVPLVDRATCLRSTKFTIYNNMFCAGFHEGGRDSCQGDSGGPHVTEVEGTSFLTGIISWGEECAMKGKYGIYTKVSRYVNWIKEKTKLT
- Sequence (P00740 47-191 partner limits assumed): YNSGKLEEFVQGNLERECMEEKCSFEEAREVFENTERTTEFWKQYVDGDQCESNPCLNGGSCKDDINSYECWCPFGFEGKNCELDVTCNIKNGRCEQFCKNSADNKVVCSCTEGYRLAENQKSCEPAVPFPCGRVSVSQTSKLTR
- ASSAY_DETAILS: Determination of inhibitory activity against Factor IXa (cleavage of fluorescent peptide CH3SO2-D-CHG-Gly-Arg-AFC)
- Type: biochemical
- CONDITIONS: table of additional examples; low enzyme format; read-out: FIXa Low Enzyme
- Procedure: Determination of Inhibitory Activity Against Factor IXa Formation of a clot to stem bleeding at a site of blood vessel injury involves the coordinated activity of a group of plasma proteins that initiate and propagate fibrin formation and subsequently protect fibrin from premature degradation. […] The activity of Factor IXa is measured by monitoring the cleavage of the fluorescent peptide, CH3SO2-D-CHG-Gly-Arg-AFC.AcOH (“CHG” is cyclohexyl-glycine and “AFC” is trifluoro aminomethyl coumarin). […]

[
  {
    "SMILES_CODE": "Nc1nccc2cc3[nH]c([C@H](O)[C@H]4OCCN(c5ccn(-c6ccncc6)n5)C4=O)nc(=O)c3cc12",
    "IC50 (nM)": 27.6
  }
]

// provenance: patent US9695198B2
